target: SARS-CoV-2 Spike A (wild-type) (Severe acute respiratory syndrome coronavirus 2, UniProt P0DTC2); construct: purchased Meso Scale Diagnostics, LLC V-PLEX SARS-CoV-2 Panel 13 (ACE2) Kit / Panel 23 (ACE2) Kit; test: MSD ACE2 competition assay (inhibition of Spike binding with ACE2, ECL), A (wild-type); conditions: IC50 Wild Type, Wild Type Spike
Positions of bridges follow the written chain, without caps; N, C: chain ends.
assay readout: pIC50
Field pIC50 (float): negative decimal logarithm of the concentration in molar.

Known pIC50 results, listed for orientation:
substance="Ac-DKEWILQKIYEIMRLLDELGHAEASMRVSDLIYEFMKKGDERLLEEAERLLEEVERGQAPGQAPDCAWHLGELVWCT-NH2 (disulfide 66-76) [Compound 147]" measurement=8.87
substance="Ac-DKEWILQKIYEIMRLLDELGHAEASMRVSDLIYEFMKKGDERLLEEAERLLEEVERGGDCAWHLGELVWCT-NH2 (disulfide 60-70) [Compound 145]" measurement=9.01

Looking up DKEWILQKIYEIMRLLDELGHAEASMRVSDLIYEFMKKGDERLLEEAERLLEEVERGGGGDCAWHLGELVWCT-NH2 (disulfide 62-72) [Compound 171] , I see its pIC50 listed as 8.90

###

Each item that follows carries a reported IC50.
molecular target: SARS-CoV-2 Spike A (wild-type) (Severe acute respiratory syndrome coronavirus 2, UniProt P0DTC2); construct: purchased Meso Scale Diagnostics, LLC V-PLEX SARS-CoV-2 Panel 13 (ACE2) Kit / Panel 23 (ACE2) Kit; experiment: MSD ACE2 competition assay (inhibition of Spike binding with ACE2, ECL), A (wild-type); conditions: IC50 Wild Type, Wild Type Spike
Positions of bridges follow the written chain, without caps; N, C: chain ends. Non-standard residues stand in square brackets, D forms with d. No end group written: not given here. Tic = O=C(O)[C@@H]1Cc2ccccc2CN1; Aib = CC(C)(N)C(=O)O
Quick note: give the figure in nM, leave out the unit.

Noted for DKEWILQKIYEIMRLLDELGHAEASMRVSDLIYEFMKKGDERLLEEAERLLEEVEREAAAKEAAAKDCAWHLGELVWCT-NH2 (disulfide 68-78) [Compound 173] : its IC50 reads 1.21

// IC50 value for Ac-DKEWILQKIYEIMRLLDELGHAEASMRVSDLIYEFMKKGDERLLEEAERLLEEVERGGGGGGGGDCAWHLGELVWCT-NH2 (disulfide 66-76) [Compound 142] : 1.35

// field: IC50; key: DKEWILQKIYEIMRLLDELGHAEASMRVSDLIYEFMKKGDERLLEEAERLLEEVERGQAPGQAPDCAWHLGELVWCT-NH2 (disulfide 66-76) [Compound 174] ; value = 1.4

Ac-DKEWILQKIYEIMRLLDELGHAEASMRVSDLIYEFMKKGDERLLEEAERLLEEVERPASPASPASPASDCAWHLGELVWCT (disulfide 70-80) [Compound 165] yielded IC50 of 0.83

Query Ac-DKEWILQKIYEIMRLLDELGHAEASMRVSDLIYEFMKKGDERLLEEAERLLEEVEREAAAKEAAAKDCAWHLGELVWCT-NH2 (disulfide 68-78) [Compound 146] yields IC50 of 1

What the record says about {CH2CO}-ASYHLGELVW[Tic][Aib]C[dE]ILQKIYEIMRLLDELGHAEASMRVSDLIYEFMKK (thioether N-13) [Compound 131] : IC50 is 31.5
